# TESTED ON: UniProtKB P70699
# Sequence (P70699 whole entry): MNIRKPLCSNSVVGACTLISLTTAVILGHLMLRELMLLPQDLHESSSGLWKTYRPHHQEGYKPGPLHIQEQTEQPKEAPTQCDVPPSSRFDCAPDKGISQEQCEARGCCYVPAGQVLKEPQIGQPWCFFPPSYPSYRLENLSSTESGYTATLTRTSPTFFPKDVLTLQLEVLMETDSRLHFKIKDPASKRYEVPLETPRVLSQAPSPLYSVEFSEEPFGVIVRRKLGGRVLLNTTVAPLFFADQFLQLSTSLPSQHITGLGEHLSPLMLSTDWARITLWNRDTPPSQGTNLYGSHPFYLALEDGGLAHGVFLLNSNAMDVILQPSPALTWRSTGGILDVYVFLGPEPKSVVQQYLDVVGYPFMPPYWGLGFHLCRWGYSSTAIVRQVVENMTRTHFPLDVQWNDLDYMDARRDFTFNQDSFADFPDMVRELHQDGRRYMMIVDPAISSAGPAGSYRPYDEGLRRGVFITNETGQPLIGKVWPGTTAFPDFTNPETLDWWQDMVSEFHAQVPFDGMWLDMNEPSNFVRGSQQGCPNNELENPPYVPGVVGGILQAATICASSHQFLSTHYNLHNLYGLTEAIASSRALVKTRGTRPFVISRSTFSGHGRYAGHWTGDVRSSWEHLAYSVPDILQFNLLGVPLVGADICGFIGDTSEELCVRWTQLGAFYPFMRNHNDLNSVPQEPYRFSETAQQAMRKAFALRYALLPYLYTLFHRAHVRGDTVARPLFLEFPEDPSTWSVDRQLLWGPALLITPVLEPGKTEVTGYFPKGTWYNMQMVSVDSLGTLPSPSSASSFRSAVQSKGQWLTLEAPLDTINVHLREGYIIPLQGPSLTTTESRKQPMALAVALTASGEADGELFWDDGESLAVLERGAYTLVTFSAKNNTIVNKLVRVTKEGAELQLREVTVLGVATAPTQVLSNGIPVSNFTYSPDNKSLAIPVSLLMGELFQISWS
# RUN DESCRIPTION: Inhibition of liver glucosidase in Swiss mouse liver extracts
Output Fulfilled for records whose IC50 is lower than 20 µM, Not fulfilled for records at or above 20 µM.

Solved entries (count: 3):
N#C/C=C1\C=C(c2ccc(Cl)cc2)N=C2Sc3ccccc3N21; Not fulfilled
COc1ccc2c(c1)SC1=NC(c3ccc(Br)cc3)=C/C(=C\C#N)N12; Fulfilled
N#C/C=C1\C=C(c2ccc(Br)cc2)N=C2Sc3ccccc3N21; Not fulfilled

stdin: Determine if "CCOc1ccc2c(c1)SC1=NC(c3ccccc3)=C/C(=C\C#N)N12" shows IC50 strictly lower than 20 µM.
stdout: Fulfilled

stdin: Determine if "COc1ccc2c(c1)SC1=NC(c3ccc(F)cc3)=C/C(=C\C#N)N12" shows IC50 strictly lower than 20 µM.
stdout: Not fulfilled

stdin: Determine if "N#C/C=C1\C=C(c2ccccc2)N=C2Sc3ccccc3N21" shows IC50 strictly lower than 20 µM.
stdout: Not fulfilled

stdin: Determine if "COc1ccc2c(c1)SC1=NC(c3ccccc3)=C/C(=C\C#N)N12" shows IC50 strictly lower than 20 µM.
stdout: Not fulfilled

stdin: Determine if "N#C/C=C1\C=C(c2ccc(F)cc2)N=C2Sc3ccccc3N21" shows IC50 strictly lower than 20 µM.
stdout: Not fulfilled

====

# TESTED ON: Pancreatic alpha-amylase (Sus scrofa, UniProt P00690)
# Sequence (P00690 whole entry): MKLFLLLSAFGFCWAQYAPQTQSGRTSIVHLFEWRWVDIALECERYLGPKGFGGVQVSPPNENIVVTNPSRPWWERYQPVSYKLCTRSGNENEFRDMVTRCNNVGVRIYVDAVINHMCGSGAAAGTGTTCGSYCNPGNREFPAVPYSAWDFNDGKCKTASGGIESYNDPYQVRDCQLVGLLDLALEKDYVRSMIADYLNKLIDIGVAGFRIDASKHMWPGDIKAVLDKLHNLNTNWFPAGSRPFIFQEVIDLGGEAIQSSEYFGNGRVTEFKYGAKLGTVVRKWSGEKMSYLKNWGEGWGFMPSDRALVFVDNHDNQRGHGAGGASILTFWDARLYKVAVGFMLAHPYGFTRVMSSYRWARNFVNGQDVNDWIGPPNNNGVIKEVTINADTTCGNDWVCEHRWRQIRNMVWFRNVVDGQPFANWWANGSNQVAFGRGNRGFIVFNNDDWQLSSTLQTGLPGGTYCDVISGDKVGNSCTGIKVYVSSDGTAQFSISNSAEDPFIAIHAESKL
QUANTITY MEASURED: IC50 (µM)
Please give a number only; it is taken to be in µM.

Please review the entries below; each comes with its answer.
COc1ccc2c(c1)SC1=NC(c3ccccc3)=C/C(=C\C#N)N12; 22.3
N#C/C=C1\C=C(c2ccc(Cl)cc2)N=C2Sc3ccccc3N21; 21.9
N#C/C=C1\C=C(c2ccc3ccccc3c2)N=C2Sc3ccccc3N21; 19.9
CCOc1ccc2c(c1)SC1=NC(c3ccccc3)=C/C(=C\C#N)N12; 21.8

Now for the compound whose IC50 we want.
In plain terms, "COc1ccc2c(c1)SC1=NC(c3ccc(Br)cc3)=C/C(=C\C#N)N12" has a documented IC50 of 17.4

====

# TESTED ON: Pancreatic alpha-amylase (Sus scrofa)
# Sequence (P00690 whole entry): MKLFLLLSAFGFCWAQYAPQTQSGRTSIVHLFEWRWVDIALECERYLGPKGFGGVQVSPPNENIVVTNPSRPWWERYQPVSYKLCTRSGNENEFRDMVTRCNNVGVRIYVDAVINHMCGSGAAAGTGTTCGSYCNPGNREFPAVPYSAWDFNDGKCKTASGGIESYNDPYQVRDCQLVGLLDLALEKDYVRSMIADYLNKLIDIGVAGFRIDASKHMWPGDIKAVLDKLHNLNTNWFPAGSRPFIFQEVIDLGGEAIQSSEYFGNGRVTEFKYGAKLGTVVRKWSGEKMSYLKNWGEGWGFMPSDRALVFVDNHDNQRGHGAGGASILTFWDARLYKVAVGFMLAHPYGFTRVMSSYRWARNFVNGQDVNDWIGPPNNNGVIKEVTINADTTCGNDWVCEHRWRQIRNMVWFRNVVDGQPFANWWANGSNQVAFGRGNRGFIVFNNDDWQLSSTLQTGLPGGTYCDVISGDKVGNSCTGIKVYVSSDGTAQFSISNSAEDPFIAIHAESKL
QUANTITY MEASURED: IC50 (µM)
Please give a number only; it is taken to be in µM.

N#C/C=C1\C=C(c2ccc(Br)cc2)N=C2Sc3ccccc3N21; 15.3
Cc1ccc(C2=C/C(=C\C#N)N3C(=N2)Sc2ccccc23)cc1; 23.2
N#C/C=C1\C=C(c2ccc(F)cc2)N=C2Sc3ccccc3N21; 24.4

In plain terms, "COc1ccc2c(c1)SC1=NC(c3ccc4ccccc4c3)=C/C(=C\C#N)N12" has a documented IC50 of 18.7

In plain terms, "COc1ccc2c(c1)SC1=NC(c3ccc(Cl)cc3)=C/C(=C\C#N)N12" has a documented IC50 of 20.2
